The values you see were collected from patent US11845793B2.

- study_system: StrepII-tagged ROR1-extracellular domain (human, UniProt Q01973)
- Sequence (Q01973 other isoform, or with tags, fused parts or gaps): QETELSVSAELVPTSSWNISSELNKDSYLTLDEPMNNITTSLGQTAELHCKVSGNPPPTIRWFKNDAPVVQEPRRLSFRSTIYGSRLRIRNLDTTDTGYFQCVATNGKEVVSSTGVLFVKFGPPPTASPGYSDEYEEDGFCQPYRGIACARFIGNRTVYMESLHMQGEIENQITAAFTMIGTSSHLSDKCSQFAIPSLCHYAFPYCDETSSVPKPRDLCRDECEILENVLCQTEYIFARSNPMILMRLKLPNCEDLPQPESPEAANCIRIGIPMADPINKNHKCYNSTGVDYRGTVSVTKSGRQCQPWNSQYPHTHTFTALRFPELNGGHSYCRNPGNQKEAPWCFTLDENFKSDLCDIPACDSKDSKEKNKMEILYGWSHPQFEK
- test_summary: SPR (Biacore T200), purified mAb captured by anti-human Fc, ROR1-strep as analyte, 1:1 model
Provide the recorded pKd for the entries that follow.
When answering, recall that pKd equals minus log10 of the concentration in mol/L, and write that number alone.

Task: Please give the documented pKd of hu2A2-D23, humanized from 2A2 (antibody, V domains shown) VH: QVQLVESGAEVKKPGASVKLSCKASGYTFSDYEMHWVRQAPGQRLEWMGAIDPETGGTAYNQKFKGRVTITVDKSASTAYMELSSLRSEDTAVYYCTGYYDYDSFTYWGPGTTVTVSS VL: DIVMTQSPSTLSASVGDRVTITCKASQNVDAAVAWYQQKPGTAPKLLIYSASNRYTGVPSRFSGSGSGTEFTLTISSLQSEDLADYFCQQYDIYPYTFGQGTKLEIK
Output: 8.10

Task: Return reported pKd. Input binder: rbQ12, humanized from R11 (antibody, V domains shown) VH: EVQLVESGGGLVQPGGSLRLSCAASGSDINDYPISWVRQAPGKGLEWVSFINSGGSTWYASWVKGRFTISRDNAKNSLYLQMNSLRADDTATYFCARGYSTYYGDFNIWGQGTMVTVSS VL: EIVMTQSPSSLSASVGDRVTITCQASQSIDSNLAWFQQKPGKAPNLLIYRASNLASGVPSRFSGSGSGTEFTLTISSLQREDAATYYCLGGVGNVSYRTSFGQGTKVEIK
Output: 7.85

Task: Identify measured pKd corresponding to rbQ11, humanized from R11 (antibody, V domains shown) VH: EVQLVQSGGGLVQPGGSLRLSCAASGSDINDYPISWVRQAPGKGLEWVSFINSGGSTWYASWVKGRFTISRDNAKNSLYLQMNSLRDDDTATYFCARGYSTYYGDFNIWGQGTLVTVSS VL: DIVMTQSPSSLSASVGDRVTITCQASQSIDSNLAWFQQKPGKAPKSLIYRASNLASGVPSKFSGSGSGTDFTLTISSLQREDAATYYCLGGVGNVSYRTSFGGGTKVEIK
Output: 8.21
